target: CDK9 - cyclin T1 (Homo sapiens, UniProt P50750)
Sequence (P50750 whole entry): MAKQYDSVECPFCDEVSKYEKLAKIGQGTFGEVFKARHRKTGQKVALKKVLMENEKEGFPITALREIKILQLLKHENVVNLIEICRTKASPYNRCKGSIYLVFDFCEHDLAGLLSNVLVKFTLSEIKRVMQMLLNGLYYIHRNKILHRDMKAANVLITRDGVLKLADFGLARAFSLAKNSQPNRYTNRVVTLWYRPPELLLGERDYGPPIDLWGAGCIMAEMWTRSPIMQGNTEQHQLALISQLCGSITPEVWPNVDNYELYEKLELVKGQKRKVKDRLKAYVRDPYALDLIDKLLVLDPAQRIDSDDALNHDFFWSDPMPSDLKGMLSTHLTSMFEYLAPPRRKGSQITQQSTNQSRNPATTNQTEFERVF
Sequence (O60563 whole entry partner): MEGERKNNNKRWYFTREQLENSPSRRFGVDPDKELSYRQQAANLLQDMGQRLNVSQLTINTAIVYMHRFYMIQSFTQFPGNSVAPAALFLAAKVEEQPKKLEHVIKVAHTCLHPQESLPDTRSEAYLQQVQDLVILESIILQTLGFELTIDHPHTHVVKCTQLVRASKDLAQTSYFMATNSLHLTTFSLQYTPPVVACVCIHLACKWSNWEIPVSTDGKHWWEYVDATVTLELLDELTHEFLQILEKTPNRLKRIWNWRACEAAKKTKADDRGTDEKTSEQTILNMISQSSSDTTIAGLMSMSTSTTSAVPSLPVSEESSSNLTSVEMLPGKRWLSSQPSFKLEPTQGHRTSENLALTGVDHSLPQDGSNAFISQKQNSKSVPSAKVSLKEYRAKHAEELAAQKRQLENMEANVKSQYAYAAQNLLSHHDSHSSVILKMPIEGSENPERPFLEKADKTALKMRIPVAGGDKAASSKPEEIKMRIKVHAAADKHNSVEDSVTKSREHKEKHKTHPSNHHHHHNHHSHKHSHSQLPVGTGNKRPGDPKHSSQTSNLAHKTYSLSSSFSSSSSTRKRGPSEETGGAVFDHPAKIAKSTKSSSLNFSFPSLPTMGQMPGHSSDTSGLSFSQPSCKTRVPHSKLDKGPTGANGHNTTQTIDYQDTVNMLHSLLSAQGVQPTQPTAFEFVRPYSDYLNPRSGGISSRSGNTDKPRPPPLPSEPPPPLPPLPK
metric: IC50 (µM)

For orientation, consider the following solved cases.
{"compound": "CC(C)n1nnc2c(NCc3ccccc3)nc(NCCCO)nc21", "units_text": "µM", "recorded_measurement": 29.2}
{"compound": "CC(C)n1nnc2c(NCc3cccc(O)c3)nc(NC3CCC(N)CC3)nc21 (stereo not drawn)", "units_text": "µM", "recorded_measurement": 1.7}
{"compound": "CC(C)C(CO)Nc1nc(NCc2ccccc2O)c2nnn(C(C)C)c2n1 (stereo not drawn)", "units_text": "µM", "recorded_measurement": 2.5}
{"compound": "CC(C)n1nnc2c(NCc3ccccc3O)nc(NC3CCC(O)CC3)nc21 (stereo not drawn)", "units_text": "µM", "recorded_measurement": 9.9}

[I] CC[C@H](CO)Nc1nc(NCc2ccccc2)c2nnn(C(C)C)c2n1
[II] CC(C)n1nnc2c(Nc3cccc(Cl)c3)nc(NC3CCC(N)CC3)nc21 (stereo not drawn)
Ask | Which value of IC50 is greater, the one for I or the one for II ? Give the chosen item's label as your response.
Reply | I
(I: 11.5 µM, II: 1.1 µM)

====

target: p34^cdc2/cyclin B (CDC2) (Homo sapiens); assay: CDK inhibition assay, p34cdc2/cyclin B kinase, histone H1 phosphorylation
Sequence (P06493 whole entry, species assumed): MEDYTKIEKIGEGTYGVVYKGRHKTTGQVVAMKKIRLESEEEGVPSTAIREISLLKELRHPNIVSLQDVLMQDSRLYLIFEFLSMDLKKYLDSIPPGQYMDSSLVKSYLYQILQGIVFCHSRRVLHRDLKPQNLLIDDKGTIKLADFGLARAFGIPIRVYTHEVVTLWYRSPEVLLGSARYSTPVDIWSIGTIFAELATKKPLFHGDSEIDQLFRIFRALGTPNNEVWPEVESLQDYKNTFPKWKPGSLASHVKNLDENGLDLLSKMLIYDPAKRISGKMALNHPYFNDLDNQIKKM
Sequence (P14635 whole entry partner, species assumed): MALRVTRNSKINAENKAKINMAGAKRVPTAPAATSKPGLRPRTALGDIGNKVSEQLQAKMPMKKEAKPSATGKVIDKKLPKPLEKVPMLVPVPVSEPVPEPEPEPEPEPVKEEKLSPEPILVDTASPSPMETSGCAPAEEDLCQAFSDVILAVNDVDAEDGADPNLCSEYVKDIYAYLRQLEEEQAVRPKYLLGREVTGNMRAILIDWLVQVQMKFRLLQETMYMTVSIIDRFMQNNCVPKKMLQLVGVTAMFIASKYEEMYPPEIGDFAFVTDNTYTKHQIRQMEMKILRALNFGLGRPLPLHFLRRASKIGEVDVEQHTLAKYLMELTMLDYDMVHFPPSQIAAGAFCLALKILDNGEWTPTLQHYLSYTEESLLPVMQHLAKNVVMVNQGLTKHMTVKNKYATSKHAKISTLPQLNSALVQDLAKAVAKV
metric: IC50 (µM)

[A] CC(=O)c1ccccc1CNc1nc(N[C@@H](CO)C(C)C)nc2c1nnn2C(C)C
[B] CC(=O)Oc1cccc(CNc2nc(NCCO)nc3c2nnn3C)c1
Ask | Record comparison, field IC50: mark the lower of A and B . Let me know the label of the one you choose.
Reply | A
(A: 25 µM, B: 48 µM)

====

Test system: MCF7
Assay: In vitro cytotoxic activity, MTT assay, MCF7
Format: cell-based
Details: Homo sapiens, 72 hours
Description: One of the parameters used, as the basis for colorimetric assays is the metabolic activity of viable cells. For example, a microtiter assay, which uses the tetrazolium salt MTT, is now widely used to quantitate cell proliferation and cytotoxicity. […] After it is solubilized, the formazan formed can easily and rapidly be quantified in a conventional ELISA plate reader at 570 nm (maximum absorbance). The quantity of reduced formazan corresponds to number of vital cells in the culture. […]
pIC50 listing for selected molecules.
Please report pIC50 as the negative decimal logarithm of the molar concentration, giving only the number.

{"molecule": "CC(C)n1nnc2c(Nc3cccc(Cl)c3)nc(NC3CCC(N)CC3)nc21 (stereo not shown)", "metric": "pIC50", "recorded_measurement": 5.21}
{"molecule": "CC(C)[C@H](CO)Nc1nc(Nc2ccccc2)c2nnn(C(C)C)c2n1", "metric": "pIC50", "recorded_measurement": 4.10}
{"molecule": "CC(=O)Oc1cccc(CNc2nc(N[C@@H](CO)C(C)C)nc3c2nnn3C(C)C)c1", "metric": "pIC50", "recorded_measurement": 4.55}
{"molecule": "CC(C)n1nnc2c(Nc3cccc(Cl)c3)nc(N(CCO)CCO)nc21", "metric": "pIC50", "recorded_measurement": 4.00}
{"molecule": "CC(C)[C@H](CO)Nc1nc(Nc2cccc(Cl)c2)c2nnn(C(C)C)c2n1", "metric": "pIC50", "recorded_measurement": 4.10}
{"molecule": "CC(C)[C@H](CO)Nc1nc(NCc2cccc(O)c2)c2nnn(C(C)C)c2n1", "metric": "pIC50", "recorded_measurement": 4.74}
{"molecule": "CC(C)n1nnc2c(Nc3cccc(Cl)c3)nc(NCCCN)nc21", "metric": "pIC50", "recorded_measurement": 4.00}
{"molecule": "CC(C)[C@H](CO)Nc1nc(Nc2ccc(N)c(Cl)c2)c2nnn(C(C)C)c2n1", "metric": "pIC50", "recorded_measurement": 4.65}

Ask | Identify measured pIC50 obtained with MCF7 for CC(=O)Oc1ccccc1CNc1nc(N[C@@H](CO)C(C)C)nc2c1nnn2C(C)C .
Reply | 4.62
